Each recorded value in this set is attributed to PubChem BioAssay (NCI).

- Tested on: SN12C renal
- experimental.protocol: NCI-60 one-dose screen, 48 h (100 = growth as untreated, 0 = no growth, -100 = all killed)
- test.context: 10 µM unless noted
About 83,000 compounds went through this panel and 20% of them were active in at least one assay; those are over-represented in the sample as a whole.
measurement.name: growth (%)
// return numeric value only (unit: %, not printed)

Return the recorded growth value; entry: C#C[C@]1(O)CC[C@H]2[C@@H]3CC=C4c5sc(Nc6cc(F)ccc6F)nc5CC[C@]4(C)[C@H]3CC[C@@]21C
-43.1

Return the recorded growth value; entry: COc1ccc(-c2cc3c4c(nc5ccccc5c4c2)CC(c2cc(OC)c(OC)c(OC)c2)O3)cc1 (configuration not stated)
32.3

Return the recorded growth value; entry: CCOC(=O)c1cn2ncnc(Oc3ccc(NC(=O)NCCN4CCOCC4)c(Cl)c3)c2c1C
95.8

Return the recorded growth value; entry: COc1cccc(Cc2nn3cc(-c4ccccc4)nc3s2)c1
96.3

Return the recorded growth value; entry: CCCCNC(=O)Oc1ccc(/C(=C(\C)c2ccc(Cl)cc2)c2ccc(OCCN(CC)CC)cc2)cc1
75.4

Return the recorded growth value; entry: CC(C)OC(=O)Nc1ccc(-c2nc(-c3cccc(OCCN4CCOCC4)c3)c(-c3ccnc(Br)c3)[nH]2)cc1
57.6

Return the recorded growth value; entry: NC(=O)Nc1ccc2ncnc(Nc3ccc(Cl)cc3)c2c1
81.9

Return the recorded growth value; entry: CC(C)n1cnc2c(Nc3cccc(Cl)c3)nc(N[C@H]3CCCC[C@@H]3N)nc21
50.6

Return the recorded growth value; entry: CS(=O)(=O)Nc1cc(-c2ccc3ncnc(Nc4cccc(Cl)c4F)c3c2)cnc1Cl
37.4

Return the recorded growth value; entry: O=c1ccc(N=Nc2ccc([N+](=O)[O-])cc2)ccc1O
4.86

Return the recorded growth value; entry: Cc1ccc2c(n1)C(=O)C(Cl)=C(Nc1ccccc1C(C)C)C2=O
23.7

Return the recorded growth value; entry: CCOC(=O)c1cn2ncnc(Oc3ccc(NC(=O)NCCN(CC)CC)c(Cl)c3)c2c1C
68.3

---

Field: growth. Provide a value for each of the molecules that follow.
- System: NCI-H23 lung
- experimental.protocol: NCI-60 one-dose screen, 48 h (100 = growth as untreated, 0 = no growth, -100 = all killed)
- test.context: 10 µM unless noted
The panel holds about 83,000 compounds, 20% with a hit somewhere; the sample as a whole holds those more often.
// return numeric value only (unit: %, not printed)

Return the recorded growth value; entry: COC(=O)CCC/C=C\C[C@H]1C=CC(=O)/C1=C/C[C@@H](O)CCc1cccc(C(F)(F)F)c1
-13.7

Return the recorded growth value; entry: CNC(=O)c1[nH]cc(-c2ccccc2)c1-c1cc(OC)c2c(c1OC)OCO2
104

Return the recorded growth value; entry: COC(=O)[C@H](C)NC(=O)NC(=O)NC(=O)CI
86.2

Return the recorded growth value; entry: c1ccc(Nc2cc(-c3cccnc3)[nH]n2)cc1
105

Return the recorded growth value; entry: CNc1ccc(Nc2cccc(C)c2)c2c1C(=O)c1ccccc1C2=O
89.9

Return the recorded growth value; entry: O=C(O)c1cn(C2CC2)c2cc(N3CCN(C(=O)Nc4nc(-c5ccc(Cl)cc5)cs4)CC3)c(F)cc2c1=O
8.09

Return the recorded growth value; entry: C=C1C(=O)O[C@H]2[C@H]1CC/C(COC(=O)CCSSCCC(=O)OC/C1=C/CC[C@@]3(C)O[C@H]3[C@H]3OC(=O)C(=C)[C@@H]3CC1)=C\CC[C@@]1(C)O[C@@H]21
26.4

Return the recorded growth value; entry: Cc1ccc(C(=O)N/N=C/c2cccc([N+](=O)[O-])c2)cn1
101

Return the recorded growth value; entry: N#Cc1c(Nc2cccc(Cl)c2)sc(C(=O)c2cc3cc(Cl)ccc3o2)c1N
77

Return the recorded growth value; entry: CN1CCN(Cc2ccc(NC(=O)c3ccc(C(C)(C)C)c(C#Cc4cnc5cccnn45)c3)cc2C(F)(F)F)CC1
-65.1

Return the recorded growth value; entry: CCOC(=O)Nc1ccc(-c2nc(-c3cccc(OCCN4CCOCC4)c3)c(-c3ccnc(Br)c3)[nH]2)cc1
47.3

Return the recorded growth value; entry: COc1ccc2c(c1OC)C(=O)O[C@H]2[C@H]1c2c(cc3c(c2OC)OCO3)CCN1C
92.5

Return the recorded growth value; entry: COc1nc2ccccc2cc1-c1nc2c(cnn2-c2ccc(Br)cc2)c(=O)[nH]1
25.2

Return the recorded growth value; entry: CCOC(=O)c1sc2ncc(-c3ccc(OC)cc3)n2c1C
85.9

Return the recorded growth value; entry: CCOc1ccc2nc(SCc3nc4n(n3)S(=O)(=O)c3ccccc3N4C)sc2c1
13.2

Return the recorded growth value; entry: CCCCC1CCCC12NC(=O)NC2=O (stereo unspecified)
99.3

Return the recorded growth value; entry: O=C(CCCCCCSc1nc(-c2ccccc2)cc(-c2ccccc2)n1)NO
27.6

Return the recorded growth value; entry: COc1ccc(OC)c(/C=C2\Oc3cc(OCCN4CCC(Cc5ccccc5)CC4)ccc3C2=O)c1
88.1

Return the recorded growth value; entry: CCC12CCC[N+]3([O-])CCC4(C(=Nc5ccccc54)C(O)(C(=O)OC)C1)C23 (stereo unspecified)
101

Return the recorded growth value; entry: CCCCOc1nc2ccc(OC)cc2cc1-c1cc(-c2ccc(Cl)cc2)nc(-c2ccc(Cl)cc2)c1
102

Return the recorded growth value; entry: CN1C(=O)N(C)C2Nn3c(s/c(=C\c4ccccc4)c3=O)=NC21 (stereo unspecified)
101

---

- Tested on: HCC-2998 colon
- experimental.protocol: NCI-60 one-dose screen, 48 h (100 = growth as untreated, 0 = no growth, -100 = all killed)
- test.context: 10 µM unless noted
Compounds without any hit were thinned out: in the full panel of roughly 83,000, 20% have a hit.
measurement.name: growth (%)
// return numeric value only (unit: %, not printed)

Return the recorded growth value; entry: Cc1ccc(/C=C2\Oc3ccc(O)c(O)c3C2=O)cc1
70.2

Return the recorded growth value; entry: COc1nc2ccccc2cc1-c1nc2c(cnn2-c2ccccc2)c(=O)[nH]1
73.3

Return the recorded growth value; entry: Cc1nc(/N=C(\N)NC(=O)Nc2cccc(Cl)c2)sc1C
78.2

Return the recorded growth value; entry: C#C[C@]1(O)CC[C@H]2[C@@H]3CC=C4c5sc(Nc6ccccc6)nc5CC[C@]4(C)[C@H]3CC[C@@]21C
45.3

Return the recorded growth value; entry: CCN1C(=O)N(CC)C2Nn3c(s/c(=C\c4ccc([N+](=O)[O-])cc4)c3=O)=NC21 (configuration not stated)
101

Return the recorded growth value; entry: Oc1c(I)cc(I)cc1CNCCCN(Cc1ccccn1)Cc1ccccn1
-82.5

Return the recorded growth value; entry: Cc1nc2nc(SCC(=O)O)[nH]c2c(=O)[nH]1
101

---

- Test system: SW-620 colon
- experimental.protocol: NCI-60 one-dose screen, 48 h (100 = growth as untreated, 0 = no growth, -100 = all killed)
- test.context: 10 µM unless noted
Compounds without any hit were thinned out: in the full panel of roughly 83,000, 20% have a hit.
Field: growth. Provide a value for each of the compounds that follow.
// return numeric value only (unit: %, not printed)

Return the recorded growth value; entry: COc1cccc2c(=O)c3c(sc12)c(NCCCN)nc1ccccc13
-48.7

Return the recorded growth value; entry: COc1ccc(-c2ncnc3c2ncn3CC#CCCl)cc1
48.9

Return the recorded growth value; entry: Cc1cc(-c2cc(C)c(N)cc2C)c(C)cc1N
100

Return the recorded growth value; entry: Cc1ccc(C(C)C)cc1C(=O)C[n+]1ccccc1
106

Return the recorded growth value; entry: CCCCCCNC(=O)Oc1ccc(/C(=C(\C)c2ccc(OC)cc2)c2ccc(OCCN3CCCCC3)cc2)cc1
55.3

---

- Test system: SR leukemia
- experimental.protocol: NCI-60 one-dose screen, 48 h
- test.context: 10 µM unless noted
The panel holds about 83,000 compounds, 20% with a hit somewhere; the sample as a whole holds those more often. Calls of active or inactive are those of the source. Rule for the calls: active = growth percent below 10; inactive = the rest.
Could you please pick one outcome from this set? label 1 = active, label 0 = inactive

Hello, I am checking results. What call was entered for COc1cccc(Cc2cc(-c3ccccc3)nn(CC(=O)c3ccccc3)c2=O)c1 ?
label 1

Hello, I am checking results. What call was entered for CN1C(=O)CNC(=O)[C@H](NC(=O)c2nc3ccccc3cc2O)CSSC[C@H]1C(=O)NCCCc1nc2ccccc2cc1O ?
label 1

Hello, I am checking results. What call was entered for CCC(C)(c1cc(C(C)(C)C)c(O)c(C(C)(C)C)c1)c1cc(C(C)(C)C)c(O)c(C(C)(C)C)c1 ?
label 0

Hello, I am checking results. What call was entered for CCOC(=O)NCCc1ccccc1 ?
label 0

Hello, I am checking results. What call was entered for O=C1/C(=C/c2ccc(F)cc2)Sc2c(Br)cccc21 ?
label 0

Hello, I am checking results. What call was entered for CCCCC[C@H](O)C/C=C1/C(=O)C=C[C@@H]1C/C=C\CCCC(=O)OC ?
label 1

Hello, I am checking results. What call was entered for O=c1c2cc(F)ccc2sc2c(NCCCNCCO)nc3ccccc3c12 ?
label 1

Hello, I am checking results. What call was entered for COc1ccc(/C=C2\Oc3cc(OCCN4CCC(Cc5ccccc5)CC4)ccc3C2=O)cc1OC ?
label 1

Hello, I am checking results. What call was entered for COc1cc(C(=O)c2cnc(-c3c[nH]c4cccc(C)c34)[nH]2)cc(OC)c1OC ?
label 1

Hello, I am checking results. What call was entered for Cc1cccc2c3c(sc12)C(c1ccc(Cl)cc1)C(C#N)=C(/N=C/c1ccc(Cl)cc1)O3 (configuration not stated) ?
label 0

Hello, I am checking results. What call was entered for COc1ccc(-c2cc(-c3ccc(Cl)cc3)c(C#N)c(=O)n2CCCCCC(=O)Nc2ccccc2N)cc1 ?
label 1

Hello, I am checking results. What call was entered for COc1cc(C2CC(c3ccc(SC)cc3)=NN2C(C)=O)cc(OC)c1OC (configuration not stated) ?
label 0

Hello, I am checking results. What call was entered for O=[N+]([O-])c1ccccc1NCSc1ccc(Cl)cc1 ?
label 0

Hello, I am checking results. What call was entered for N[C@@H](Cc1ccccc1)[C@@H](O)C(=O)NCc1ccc(F)cc1 ?
label 0

Hello, I am checking results. What call was entered for COc1ccc(NC2=C(Br)C(=O)C(C)=C(C)C2=O)cc1 ?
label 1

Hello, I am checking results. What call was entered for CCCCn1c(=O)c(-c2cc(-c3ccc(Cl)cc3)nc(-c3ccc(Cl)cc3)c2)cc2cc(Cl)ccc21 ?
label 0

Hello, I am checking results. What call was entered for CCCCOc1nc2ccc(OC)cc2cc1-c1cc(-c2ccc(Cl)cc2)nc(-c2ccc(Cl)cc2)c1 ?
label 0
